Several reports have described Ki for Stromelysin-1 (Homo sapiens, UniProt P08254); a selection of those results is presented here.
measurement.type: Ki (nM)

Look over these answered cases.
molecule: CC(C)C[C@H](NC(=O)[C@@H](CCC(=O)O)CCc1ccccc1)C(=O)Nc1ccccc1
Ki, nM: 5800
//
molecule: CNC(=O)[C@@H]1CCCNN1C(=O)[C@H](CCOc1ccc(Cc2ccccc2)cc1)N[C@H](C)C(=O)O
Ki, nM: 552
//
molecule: O=C(C[C@@H](CCc1ccccc1)C(=O)N[C@@H](CC1CCCCC1)C(=O)NCCc1ccccc1)NO
Ki, nM: 77
//
molecule: CCCC[C@@H](C[C@@H](CCc1ccc(-c2ccc([S+](C)[O-])cc2)cc1)C(=O)N[C@H](C(=O)NC)C(C)(C)C)C(=O)O (stereo not given in full)
Ki, nM: 52
//
molecule: O=S(=O)(N[C@H]1CCC[C@@H]1S)c1ccc(-c2ccccc2)cc1 (racemic)
Ki, nM: 10000
//
molecule: O=C(NO)C1(S(=O)(=O)c2ccc(OCCCn3nnc(-c4ccc(OC(F)(F)F)cc4)n3)cc2)CCOCC1
Ki, nM: 28

[1] CNC(=O)[C@@H](NC(=O)[C@H](c1ccccc1)[C@H](CO)C(=O)NO)C(C)(C)C
[2] CCCC[C@@H](C[C@@H](CCc1ccc(-c2ccc(C(N)=O)cc2)cc1)C(=O)N[C@H](C(=O)NC)C(C)(C)C)C(=O)O
[3] CNC(=O)[C@@H]1CCCCNC(=O)CC[C@H](C(=O)O)N[C@@H](CCc2ccccc2)C(=O)N1
Please rank these molecules by Ki in descending order. // rank by listing labels in the order requested
3, 2, 1
